Just for reference, the supplement of paper PMC7877785 is where these values come from.

Reported values of self-splicing fitness (ln) for individual entries
MEASUREMENT_NOTES: self-splicing fitness, log relative to wild type (ln ratio); higher = more splicing; Tetrahymena group I intron in knt gene, E. coli kanamycin selection, DiMSum; sequences stand for … in CUCUCU…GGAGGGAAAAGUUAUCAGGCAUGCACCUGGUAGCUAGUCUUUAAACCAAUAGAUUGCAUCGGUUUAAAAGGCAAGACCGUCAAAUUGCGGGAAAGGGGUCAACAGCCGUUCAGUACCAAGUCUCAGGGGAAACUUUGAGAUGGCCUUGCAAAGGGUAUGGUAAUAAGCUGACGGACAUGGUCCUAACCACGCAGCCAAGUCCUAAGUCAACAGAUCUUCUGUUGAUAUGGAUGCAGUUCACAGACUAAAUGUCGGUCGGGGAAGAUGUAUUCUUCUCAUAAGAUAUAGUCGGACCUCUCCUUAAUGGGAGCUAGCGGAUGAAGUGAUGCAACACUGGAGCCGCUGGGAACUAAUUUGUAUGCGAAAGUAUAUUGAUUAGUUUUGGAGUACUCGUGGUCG;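 also: selection with 25 µg/mL kanamycin versus none on LB agar overnight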
CONDITION_SET: 37 °C
READOUT_TYPE: self-splicing fitness (ln)

>>> endpoint_result("AAGGAGCAAUAUUACGGGGA")
-2.25
>>> endpoint_result("GAUAAGCAAUAUUACGGAAA")
-1.67
>>> endpoint_result("GCGAAGCAAUAUUACGGCUA")
-0.618
>>> endpoint_result("GGGCAGCAAUAUUACGAAUG")
-2.12
>>> endpoint_result("AACCAGCAAUAUUACGCGAU")
-1.77
>>> endpoint_result("CUCAAGCAAUAUUACGGUAA")
-1.66
>>> endpoint_result("CACGAGCAAUAUUACGGGCU")
-3.5
>>> endpoint_result("ACAUAGCAAUAUUACGAUGG")
-0.176
>>> endpoint_result("CAAUAGCAAUAUUACGCGGU")
-3.12
>>> endpoint_result("UGUCAGCAAUAUUACGUUCU")
-0.142
>>> endpoint_result("AAGUAGCAAUAUUACGACAA")
0.0804
>>> endpoint_result("CCGUAGCAAUAUUACGGGAG")
-2.97
>>> endpoint_result("GCUAAGCAAUAUUACGUAUG")
-1.12
>>> endpoint_result("AUUAAGCAAUAUUACGGAUC")
-0.479
>>> endpoint_result("UUUCAGCAAUAUUACGGAGU")
-1.64
>>> endpoint_result("GACAAGCAAUAUUACGACUC")
0.387

###

MEASUREMENT_NOTES: self-splicing fitness, log relative to wild type (ln ratio); higher = more splicing; Tetrahymena group I intron in knt gene, E. coli kanamycin selection, DiMSum; sequences stand for … in CUCUCU…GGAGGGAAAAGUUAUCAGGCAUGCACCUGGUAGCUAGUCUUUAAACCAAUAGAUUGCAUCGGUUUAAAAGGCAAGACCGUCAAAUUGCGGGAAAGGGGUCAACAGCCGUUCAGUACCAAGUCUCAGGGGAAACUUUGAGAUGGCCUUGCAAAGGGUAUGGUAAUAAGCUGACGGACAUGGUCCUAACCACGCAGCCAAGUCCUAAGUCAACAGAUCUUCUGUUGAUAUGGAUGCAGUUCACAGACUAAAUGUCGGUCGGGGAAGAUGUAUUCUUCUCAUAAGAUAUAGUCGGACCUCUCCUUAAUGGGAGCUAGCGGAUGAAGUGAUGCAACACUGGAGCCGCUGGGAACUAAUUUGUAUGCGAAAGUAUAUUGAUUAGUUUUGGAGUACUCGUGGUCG
CONDITION_SET: 37 °C
Reported values of self-splicing fitness (ln) for individual entries
READOUT_TYPE: self-splicing fitness (ln)

>>> endpoint_result("AGGAAGCAAUAUUACGUCGC")
-2.06
>>> endpoint_result("GAUUAGCAAUAUUACGGGUU")
-1.14
>>> endpoint_result("CAAAAGCAAUAUUACGGGAC")
-1.71
>>> endpoint_result("UGUCAGCAAUAUUACGGUAG")
-0.235
>>> endpoint_result("ACUAAGCAAUAUUACGAUCA")
-0.58
>>> endpoint_result("CGUCAGCAAUAUUACGAACA")
0.843
>>> endpoint_result("CAGUAGCAAUAUUACGUUGA")
-2.14
>>> endpoint_result("CUCCAGCAAUAUUACGGCGG")
-3.1
>>> endpoint_result("AUGGAGCAAUAUUACGUUUG")
-2.58
>>> endpoint_result("ACUCAGCAAUAUUACGGGAU")
-0.522
>>> endpoint_result("GCUCAGCAAUAUUACGUCAU")
-1.26
>>> endpoint_result("CACGAGCAAUAUUACGGUCA")
-1.54
>>> endpoint_result("UGGUAGCAAUAUUACGGUCA")
-0.176
>>> endpoint_result("CAUGAGCAAUAUUACGGGCU")
-2.11
>>> endpoint_result("AAGCAGCAAUAUUACGCAAU")
-1.22
>>> endpoint_result("AAUGAGCAAUAUUACGCCCG")
-1.76
>>> endpoint_result("CGCAAGCAAUAUUACGGGCC")
-1.02
>>> endpoint_result("UCGCAGCAAUAUUACGGCUU")
0.404
>>> endpoint_result("UAUUAGCAAUAUUACGGGUC")
-2.29
>>> endpoint_result("AUGGAGCAAUAUUACGUCAG")
-1.41
>>> endpoint_result("AAAAAGCAAUAUUACGGAUA")
-1.14
>>> endpoint_result("GAUUAGCAAUAUUACGCCAG")
-0.806
>>> endpoint_result("UUCCAGCAAUAUUACGGGAC")
-1.29
>>> endpoint_result("CCGUAGCAAUAUUACGGCGU")
-1.86
>>> endpoint_result("GCGUAGCAAUAUUACGAUAG")
-1.83
>>> endpoint_result("GGCAAGCAAUAUUACGCGCC")
-1.77
>>> endpoint_result("AAAGAGCAAUAUUACGGCAA")
-1.58
>>> endpoint_result("CAGUAGCAAUAUUACGAGUA")
-2.57
>>> endpoint_result("UUUCAGCAAUAUUACGGUUA")
0.454
>>> endpoint_result("CCACAGCAAUAUUACGCGGA")
-1.01
>>> endpoint_result("UAAUAGCAAUAUUACGUGUU")
-1.97
>>> endpoint_result("GUUCAGCAAUAUUACGGCAG")
-1.82
>>> endpoint_result("UAAUAGCAAUAUUACGCCAC")
-1.89
>>> endpoint_result("GCCUAGCAAUAUUACGAAAU")
-0.297
